Where do the numbers come from? From ChEMBL document CHEMBL1125837.

- SUBJECT OF TEST: Phosphodiesterase 4 (Rattus norvegicus, UniProt P14270+P14646+P14644+P54748)
- ASSAY: Inhibition of [3H]cAMP (NEN NET-275) binding to Calcium-Independent Phosphodiesterase from rat brain.
QUANTITY NAME: log10 IC50 (log10 of the value in µM)
Please keep in mind that the values are log10 of IC50 expressed in µM.

COMPOUND	log10 IC50
O=C(NCc1ccccc1)c1cccnc1Oc1ccccc1	0.26
CC(C)NC(=O)c1cccnc1Oc1ccc(F)cc1	0.49
O=C(NCc1ccccc1)c1cccnc1Oc1ccc(Cl)c(Cl)c1	0.34
O=C(NCc1ccccc1)c1cccnc1OC1CC2CCC1C2 (configuration not stated)	-0.66
COC(=O)c1cccc(Oc2ncccc2C(=O)NCc2ccccc2)c1	0.15
O=C(NCc1ccccc1)c1cccnc1Oc1cccc(C(F)(F)F)c1	0.81
Cc1ccc(CNC(=O)c2cccnc2Oc2ccc(F)cc2)cc1	-0.27
COc1ccc(Oc2ncccc2C(=O)NCc2ccccc2)cc1	0.49

For each of the items listed, what is its log10 IC50?
1. O=C(NCc1ccccc1)c1cccnc1Oc1ccccc1F
2. O=C(NCc1ccccc1)c1cccnc1Oc1cccc(F)c1
3. O=C(NCc1ccccc1)c1cccnc1Oc1ccc(F)cc1
4. N#Cc1cccc(Oc2ncccc2C(=O)NCc2ccccc2)c1

OUTPUT:
1.00
0.26
0.46
0.99

Working through the 4 compounds below one at a time, give log10 IC50 for each.
1. COc1cccc(Oc2ncccc2C(=O)NCc2ccccc2)c1
2. COc1ccc(CNC(=O)c2cccnc2Oc2ccc(F)cc2)cc1
3. O=C(NCc1ccc(F)cc1)c1cccnc1Oc1ccc(F)cc1
4. O=C(Nc1ccccc1)c1cccnc1Oc1ccc(F)cc1

OUTPUT:
1: 0.40; 2: -0.14; 3: 0.60; 4: 0.34

----------
- SUBJECT OF TEST: Phosphodiesterase 4 (Rattus norvegicus, UniProt P14270+P14646+P14644+P54748)
- ASSAY: Inhibition of [3H]rolipram binding to rat brain membranes.
- Assay type: cell membranes, Membrane
Lab note - cut at 30 µM for IC50: fulfilled if strictly below, not fulfilled if not.

The following compounds have reported results that may help.
COMPOUND	ASSIGNED CATEGORY
O=C(NCc1ccccc1)c1cccnc1Oc1ccc(Cl)c(Cl)c1	fulfilled
O=C(Nc1ccccc1)c1cccnc1Oc1ccc(F)cc1	not fulfilled
O=C(NCc1ccccc1)c1cccnc1Oc1ccc(F)cc1	not fulfilled
O=C(NCc1ccccc1)c1cccnc1Oc1ccccc1	not fulfilled
O=C(NCc1ccc(F)cc1)c1cccnc1Oc1ccc(F)cc1	not fulfilled
COC(=O)c1cccc(Oc2ncccc2C(=O)NCc2ccccc2)c1	fulfilled
COc1cccc(Oc2ncccc2C(=O)NCc2ccccc2)c1	fulfilled
O=C(NCc1ccccc1)c1cccnc1OC1CC2CCC1C2 (configuration not stated)	fulfilled

INPUT: Say whether its IC50 is strictly beneath 30 µM. Entry: N#Cc1cccc(Oc2ncccc2C(=O)NCc2ccccc2)c1
OUTPUT: fulfilled

INPUT: # TODO verify IC50 < 30 µM strictly for this compound: Cc1ccc(CNC(=O)c2cccnc2Oc2ccc(F)cc2)cc1
OUTPUT: fulfilled

INPUT: Please check: IC50 for O=C(NCc1ccccc1)c1cccnc1Oc1cccc(C(F)(F)F)c1 , strictly under 30 µM or not?
OUTPUT: not fulfilled

INPUT: Quick check: IC50 of O=C(NCc1ccccc1)c1cccnc1Oc1cccc(F)c1 under 30 µM?
OUTPUT: fulfilled

----------
- SUBJECT OF TEST: Phosphodiesterase 4 (Rattus norvegicus, UniProt P14270+P14646+P14644+P54748)
- ASSAY: Inhibition of [3H]rolipram binding to rat brain membranes.
- Type: cell membranes, Membrane
QUANTITY NAME: IC50 (µM)
Give bare numbers, in µM.

SMILES STRING	UNIT ABBREV	IC50
CC(C)NC(=O)c1cccnc1Oc1ccc(F)cc1	µM	26
COc1ccc(CNC(=O)c2cccnc2Oc2ccc(F)cc2)cc1	µM	26

Shift focus to the following entry.
INPUT: Return reported IC50. Input molecule: COc1ccc(Oc2ncccc2C(=O)NCc2ccccc2)cc1
OUTPUT: 100

----------
- Species on record: Mus musculus
- ASSAY: Minimal effective peroral dose in mouse reserpine hypothermia test
- Assay type: functional
- RUN PARAMETERS: po, read-out: MED
Exercise: state measured minimal effective dose for each of the compounds provided.

Some compounds with known minimal effective dose results, for comparison:
COMPOUND	ENDPOINT RESULT
Cc1ccc(CNC(=O)c2cccnc2Oc2ccc(F)cc2)cc1	0.001 mg/kg
O=C(NCc1ccc(F)cc1)c1cccnc1Oc1ccc(F)cc1	0.01 mg/kg
COc1cccc(Oc2ncccc2C(=O)NCc2ccccc2)c1	0.01 mg/kg
COc1ccccc1Oc1ncccc1C(=O)NCc1ccccc1	> 3.2 mg/kg
O=C(Nc1ccccc1)c1cccnc1Oc1ccc(F)cc1	0.001 mg/kg

In the following, a different compound is considered.
INPUT: For the compound O=C(NCc1ccccc1)c1cccnc1OC1CC2CCC1C2 (stereo unspecified) , report minimal effective dose.
OUTPUT: 1 mg/kg

----------
- Species on record: Mus musculus
- ASSAY: Minimal effective peroral dose in mouse reserpine hypothermia test
- Format: functional
- RUN PARAMETERS: po, read-out: MED
Consider the following compounds; for each one, report its minimal effective dose.
Answers are plain numbers, in mg/kg.

List reported minimal effective dose for each of these compounds:
1. O=C(NCc1ccccc1)c1cccnc1Oc1ccccc1
2. O=C(NCc1ccccc1)c1cccnc1Oc1ccc(F)cc1
3. COc1ccc(CNC(=O)c2cccnc2Oc2ccc(F)cc2)cc1
4. COc1ccc(Oc2ncccc2C(=O)NCc2ccccc2)cc1

OUTPUT:
1. 0.32
2. 0.01
3. 3.2
4. 0.01

----------
- Species: Mus musculus
- ASSAY: Minimal effective peroral dose in mouse reserpine hypothermia test
- Assay type: functional
- RUN PARAMETERS: po, read-out: MED
QUANTITY NAME: minimal effective dose (mg/kg)
One number for each entry, in mg/kg.

Here's what some known entries look like.
SMILES STRING	UNIT ABBREV	minimal effective dose
COC(=O)c1cccc(Oc2ncccc2C(=O)NCc2ccccc2)c1	mg/kg	0.001
CC(C)NC(=O)c1cccnc1Oc1ccc(F)cc1	mg/kg	0.001
O=C(NCc1ccccc1)c1cccnc1Oc1cccc(C(F)(F)F)c1	mg/kg	3.2
O=C(NCc1ccccc1)c1cccnc1Oc1ccccc1F	mg/kg	0.01
O=C(NCc1ccccc1)c1cccnc1Oc1cccc(F)c1	mg/kg	0.01

Consider now this further compound.
INPUT: Provide minimal effective dose value for the following compound: N#Cc1cccc(Oc2ncccc2C(=O)NCc2ccccc2)c1
OUTPUT: 0.1
